test system: Escherichia coli IAI1; test: fold change of Cadaverine concentration vs plate DMSO controls (fold change (ratio)); higher = more amine produced, active = hit call of the paper (significant change in both replicates, either direction); conditions: incubation time: 27 h, anaerobic, 37 °C
Where a name gives a salt, the structure may show the parent alone.
So basically: fold change of Cadaverine concentration at 1 or higher? That is true (1). Lower than 1? That is false (0).

{"columns": ["compound", "classification"],
 "data": [
  ["Nc1nc(/C(=C/CC(=O)O)C(=O)N[C@@H]2C(=O)N3C(C(=O)O)=CCS[C@H]23)cs1 [Ceftibuten] (20 µM)", "false (0)"],
  ["CCCCC(CC)CNC(=N)NC(=N)NCCCCCCNC(=N)NC(=N)NCC(CC)CCCC (configuration not stated) [Alexidine dihydrochloride] (20 µM)", "true (1)"],
  ["OC[C@H]1O[C@H](O[C@H]2O[C@H](CO)[C@@H](O)[C@H](O)[C@H]2O)[C@H](O)[C@@H](O)[C@@H]1O [Trehalose] (50 µM)", "false (0)"]
]}

###

tested on: Klebsiella aerogenes DSM 30053; assay: fold change of Putrescine concentration vs plate DMSO controls (fold change (ratio)); higher = more amine produced, active = hit call of the paper (significant change in both replicates, either direction); settings: incubation time: 27 h, anaerobic, 37 °C;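 for the amine columns active = adjusted P below 0.05 in both replicates with a change the same way and a mean fold change under 0.8 or over 1.25; inactive = the rest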
Outcome codes: Yes for active, No for inactive

{"columns": ["molecule", "classification"],
 "data": [
  ["O=C(O)CCC(=O)c1ccc(-c2ccccc2)cc1 [Fenbufen] (20 µM)", "No"],
  ["C=C1c2c(Cl)ccc(O)c2C(O)=C2C(=O)[C@]3(O)C(O)=C(C(N)=O)C(=O)[C@@H](N(C)C)[C@@H]3[C@@H](O)[C@H]12.O=C(O)c1cc(S(=O)(=O)O)ccc1O [Meclocycline sulfosalicylate] (20 µM)", "Yes"],
  ["Clc1ccc(COC(Cn2ccnc2)c2ccc(Cl)cc2Cl)c(Cl)c1 (centres undefined) [Miconazole] (20 µM)", "No"],
  ["Cn1c(=O)c2c(ncn2CC2OCCO2)n(C)c1=O [Doxofylline] (20 µM)", "No"]
]}

###

test system: Klebsiella aerogenes DSM 30053; test: growth (OD595) fold change vs plate DMSO controls (fold change (ratio)); higher = more growth; details: incubation time: 27 h, anaerobic, 37 °C
Attribute: growth

{"columns": ["compound", "growth"],
 "data": [
  ["COc1cc2ncnc(Nc3ccc(F)c(Cl)c3)c2cc1OCCCN1CCOCC1 [Gefitinib] (20 µM)", 0.991],
  ["C[C@H]1COc2c(N3CCN(C)CC3)c(F)cc3c(=O)c(C(=O)O)cn1c23 [Levofloxacin] (20 µM)", 0.11],
  ["OC[C@H]1O[C@@H](n2cnc3cncnc32)[C@H](O)[C@@H]1O [Nebularine] (20 µM)", 1.01],
  ["COc1ccc2c(c1)C(=O)N(CCc1ccc(S(=O)(=O)NC(=O)NC3CCCCC3)cc1)C(=O)C2(C)C [Gliquidone] (20 µM)", 0.984]
]}

###

tested on: Escherichia coli IAI1; experiment: growth (OD595) fold change vs plate DMSO controls (fold change (ratio)); higher = more growth; details: incubation time: 27 h, anaerobic, 37 °C
Structures can show the parent of a compound that is named as a salt.
Attribute: growth

{"columns": ["compound", "growth"],
 "data": [
  ["CCn1cc(C(=O)O)c(=O)c2cc(F)c(N3CCNC(C)C3)c(F)c21 (centres undefined) [Lomefloxacin hydrochloride] (20 µM)", 0.0575],
  ["Clc1ccccc1C(c1ccccc1)(c1ccccc1)n1ccnc1 [Clotrimazole] (20 µM)", 0.974],
  ["COc1cc(NS(=O)(=O)c2ccc(N)cc2)nc(OC)n1 [Sulfadimethoxine] (20 µM)", 0.992],
  ["CCC1(c2ccccc2)C(=O)NCNC1=O [Primidone] (20 µM)", 0.953]
]}

###

tested on: Escherichia coli IAI1; assay: growth (OD595) fold change vs plate DMSO controls (fold change (ratio)); higher = more growth; settings: incubation time: 27 h, anaerobic, 37 °C
Counter-ions that a name gives are not always drawn.
property measured: growth

{"columns": ["compound", "experimental target", "value reported"],
 "data": [
  ["CC(=O)Nc1cccc(O)c1 [Metacetamol] (20 µM)", "Escherichia coli IAI1", 1.03],
  ["CC1CNc2c(cccc2S(=O)(=O)N[C@@H](CCCNC(=N)N)C(=O)N2CC[C@@H](C)C[C@@H]2C(=O)O)C1 (some centres undefined) [Argatroban] (20 µM)", "Escherichia coli IAI1", 0.953],
  ["C[C@]12CCC(=O)C=C1CC[C@@H]1[C@@H]2[C@@H](O)C[C@@]2(C)[C@H]1CC[C@]2(O)C(=O)CO [Hydrocortisone] (20 µM)", "Escherichia coli IAI1", 1.03],
  ["Nc1ccc(C(=O)O)c(O)c1 [Aminosalicylic acid] (20 µM)", "Escherichia coli IAI1", 1.02],
  ["CC(C)(C(=O)O)c1ccc(C(O)CCCN2CCC(C(O)(c3ccccc3)c3ccccc3)CC2)cc1 (centres undefined) [Fexofenadine hydrochloride] (20 µM)", "Escherichia coli IAI1", 1.02],
  ["CN(C)CCCSC(=N)N [Dimaprit dihydrochloride] (20 µM)", "Escherichia coli IAI1", 1.04],
  ["CO/N=C1\\CN(c2nc3c(cc2F)c(=O)c(C(=O)O)cn3C2CC2)CC1CN (centres undefined) [Gemifloxacin mesylate] (20 µM)", "Escherichia coli IAI1", 0.0388],
  ["Cc1cc(CC(=O)O)n(C)c1C(=O)c1ccc(Cl)cc1 [Zomepirac sodium salt] (20 µM)", "Escherichia coli IAI1", 0.969],
  ["CC(C)COC(=O)OCN1C(=O)CN(CCN2CC(=O)N(COC(=O)OCC(C)C)C(=O)C2)CC1=O [Sobuzoxane] (20 µM)", "Escherichia coli IAI1", 0.991],
  ["COc1ccc(CCC(=O)c2c(O)cc(O[C@@H]3O[C@H](CO)[C@@H](O)[C@H](O)[C@H]3O[C@@H]3O[C@@H](C)[C@H](O)[C@@H](O)[C@H]3O)cc2O)cc1O [Neohesperidin Dihydrochalcone (Nhdc)] (50 µM)", "Escherichia coli IAI1", 0.987],
  ["CC(C)(CO)[C@@H](O)C(=O)NCCC(=O)NCCSSCCNC(=O)CCNC(=O)[C@H](O)C(C)(C)CO [D-Pantethine] (20 µM)", "Escherichia coli IAI1", 0.976],
  ["C[C@@H]1C[C@H]2[C@@H]3CCC4=CC(=O)C=C[C@]4(C)[C@@]3(Cl)[C@@H](O)C[C@]2(C)[C@@]1(OC(=O)c1ccco1)C(=O)CCl [Mometasone furoate] (20 µM)", "Escherichia coli IAI1", 0.984],
  ["Nc1ncnc2c1ncn2[C@@H]1O[C@H](CO)[C@@H](O)[C@@H]1O [Vidarabine] (20 µM)", "Escherichia coli IAI1", 1.07],
  ["NS(=O)(=O)c1cc(C(=O)O)c(NCc2ccco2)cc1Cl [Furosemide] (20 µM)", "Escherichia coli IAI1", 1.01]
]}

###

system: Escherichia coli IAI1; test: growth (OD595) fold change vs plate DMSO controls (fold change (ratio)); higher = more growth; details: incubation time: 27 h, anaerobic, 37 °C
Counter-ions that a name gives are not always drawn.

{"columns": ["molecule", "growth"],
 "data": [
  ["COc1ccc(-c2ccc3cc(C(=O)O)ccc3c2)cc1C12CC3CC(CC(C3)C1)C2 [Adapalene] (20 µM)", 1],
  ["CN(N=O)C(=O)N[C@H]1C(O)O[C@H](CO)[C@@H](O)[C@@H]1O (mixture of isomers) [Streptozotocin] (20 µM)", 1.19],
  ["COc1ccccc1N1CCN(CCCNc2cc(=O)n(C)c(=O)n2C)CC1 [Urapidil hydrochloride] (20 µM)", 0.934],
  ["CN(C)CCc1c[nH]c2ccc(Cn3cncn3)cc12 [Rizatriptan benzoate] (20 µM)", 0.971],
  ["CC1(C)S[C@@H]2[C@H](NC(=O)[C@H](C(=O)O)c3ccsc3)C(=O)N2[C@H]1C(=O)O [Ticarcillin sodium] (20 µM)", 1.22],
  ["C=CCSCC1Nc2cc(Cl)c(S(N)(=O)=O)cc2S(=O)(=O)N1 (configuration not stated) [Althiazide] (20 µM)", 1.11],
  ["CCN1CCN(Cc2ccc(Nc3ncc(F)c(-c4cc(F)c5nc(C)n(C(C)C)c5c4)n3)nc2)CC1 [Abemaciclib] (20 µM)", 1]
]}

###

Attribute: fold change of Tryptamine concentration
tested on: Clostridium sporogenes DSM 1664; assay: fold change of Tryptamine concentration vs plate DMSO controls (fold change (ratio)); higher = more amine produced, active = hit call of the paper (significant change in both replicates, either direction); details: incubation time: 27 h, anaerobic, 37 °C
Where a name gives a salt, the structure may show the parent alone.

{"columns": ["compound", "fold change of Tryptamine concentration"],
 "data": [
  ["CCN1CCC[C@H]1CNC(=O)c1c(OC)ccc(Br)c1OC [Remoxipride hydrochloride] (20 µM)", 0.946],
  ["CCc1oc2ccccc2c1C(=O)c1cc(I)c(O)c(I)c1 [Benziodarone] (20 µM)", 0.0565],
  ["CCOC(=O)N1CCC(=C2c3ccc(Cl)cc3CCc3cccnc32)CC1 [Loratadine] (20 µM)", 1.18],
  ["CC(C)Nc1cccnc1N1CCN(C(=O)c2cc3cc(NS(C)(=O)=O)ccc3[nH]2)CC1 [Delavirdine] (20 µM)", 0.965]
]}
